- study_system: hROMK (hKir1.1) (Homo sapiens, UniProt P48048)
- Sequence (P48048 whole entry): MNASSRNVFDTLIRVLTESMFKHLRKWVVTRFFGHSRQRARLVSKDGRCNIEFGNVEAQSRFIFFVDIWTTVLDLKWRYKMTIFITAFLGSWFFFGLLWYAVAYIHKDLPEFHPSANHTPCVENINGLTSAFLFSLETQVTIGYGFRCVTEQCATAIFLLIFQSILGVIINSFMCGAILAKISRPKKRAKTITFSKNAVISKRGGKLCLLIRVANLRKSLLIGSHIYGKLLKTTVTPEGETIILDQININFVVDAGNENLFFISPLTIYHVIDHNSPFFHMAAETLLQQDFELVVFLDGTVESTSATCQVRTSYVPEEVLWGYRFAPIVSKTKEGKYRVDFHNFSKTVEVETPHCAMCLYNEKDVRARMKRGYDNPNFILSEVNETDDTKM
- experiment: Thallium Flux Assay (ROMK channel functional thallium flux assay, FLIPR-Tetra)
- condition_notes: HEK293 cells stably expressing hROMK; 30 min incubation with compound

compound	study_system	IC50 (nM)
Cc1c([C@@H](O)CN2CCN3CC(c4ccc5c(c4)C[C@@H](C)OC5=O)C[C@H]3C2)ccc2c1COC2=O (stereo partly drawn)	hROMK (hKir1.1) (Homo sapiens, UniProt P48048)	81.4
Cc1c(CCN2CCc3nc(-c4ccc(-n5cnnn5)cc4)ncc3C2)ccc2c1COC2=O	hROMK (hKir1.1) (Homo sapiens, UniProt P48048)	168
Cc1c(CCN2CCn3c(-c4ccc5c(c4)COC5=O)cnc3C2)ccc2c1COC2=O	hROMK (hKir1.1) (Homo sapiens, UniProt P48048)	124
Cc1c([C@@H](O)CN2CCc3c(cnn3-c3ccc(C#N)cn3)C2)ccc2c1COC2=O	hROMK (hKir1.1) (Homo sapiens, UniProt P48048)	592
COc1cc(-c2nnc3n2CCN(CCc2ccc4c(c2C)COC4=O)C3)ccc1C#N	hROMK (hKir1.1) (Homo sapiens, UniProt P48048)	85
COc1cc(-c2cn3c(n2)CN(CC(O)c2ccc4c(c2C)COC4=O)CC3)ccc1C#N (stereo not drawn)	hROMK (hKir1.1) (Homo sapiens, UniProt P48048)	154
Cc1c(CCN2CC[C@@H]3[C@@H](C2)OC(=O)N3Cc2ccc3c(c2C)COC3=O)ccc2c1COC2=O	hROMK (hKir1.1) (Homo sapiens, UniProt P48048)	201
Cc1c(CCN2CCc3nc(-c4ccc(C#N)cn4)ncc3C2)ccc2c1COC2=O	hROMK (hKir1.1) (Homo sapiens, UniProt P48048)	449
Cc1c(C(O)CN2CCc3nc(-c4ccc(C#N)cn4)ncc3C2)ccc2c1COC2=O (stereo not drawn)	hROMK (hKir1.1) (Homo sapiens, UniProt P48048)	155
Cc1c(C(O)CN2CCc3c(cnn3-c3ccc4c(c3)COC4=O)C2)ccc2c1COC2=O (stereo not drawn)	hROMK (hKir1.1) (Homo sapiens, UniProt P48048)	67
Cc1c(CCN2CCn3cc(-c4ccc5c(c4)COC5=O)nc3C2)ccc2c1COC2=O	hROMK (hKir1.1) (Homo sapiens, UniProt P48048)	134
O=C1OCc2cc(CCN3CCc4nc(-c5ccc(-n6cnnn6)cc5)ncc4C3)ccc21	hROMK (hKir1.1) (Homo sapiens, UniProt P48048)	74
Cc1c([C@@H](O)CN2CCn3c(-c4ccc5c(c4)C[C@H](C)OC5=O)cnc3C2)ccc2c1COC2=O	hROMK (hKir1.1) (Homo sapiens, UniProt P48048)	301
Cc1c(C(O)CN2CCc3nc(-c4ccc(C#N)c(F)c4)ncc3C2)ccc2c1COC2=O (stereo not drawn)	hROMK (hKir1.1) (Homo sapiens, UniProt P48048)	82
O=C1OCCc2cc(CCN3CCn4cc(-c5ccc6c(c5)COC6=O)nc4C3)ccc21	hROMK (hKir1.1) (Homo sapiens, UniProt P48048)	192
